Test: qHTS of pediatric cancer cell lines to identify multiple opportunities for drug repurposing: Primary screen for MG 63 (6-TG R) cells (AID 1347105); further: nearly all actives have a fitted effect of over 50% in size
Settings: MG 63 (6-TG R) viability, CellTiter-Glo, 48 h; series mostly up to 46 µM
Results filed as inconclusive are left out. The source made the active and inactive calls. The call rests on the fitted dose curve; in most records, active means well fitted cell-killing curve with a large enough effect; inconclusive means small, poorly fitted or top-dose-only effect; inactive means no such curve, though single readings can be large or run the other way.
Can you answer with just one of these options? yes (1) = active, no (0) = inactive

Some solved entries appear below for comparison.
Req: Call for entry COc1nc(N)nc2c1ncn2[C@@H]1O[C@H](CO)[C@@H](O)[C@@H]1O :
Resp: no (0)

Req: Call for entry CCn1cc(C(=O)O)c(=O)c2cc(F)c(N3CCNCC3)nc21 :
Resp: no (0)

Req: Call for entry Cc1ccnc2c1NC(=O)c1cccnc1N2C1CC1 :
Resp: no (0)

Req: Call for entry CCc1cc(C(N)=S)ccn1 :
Resp: no (0)

Req: Call for entry CCCCS(=N)(=O)CCC(N)C(=O)O (centres undefined) :
Resp: no (0)

Next:
Req: Call for entry CCN[C@H]1C[C@H](C)S(=O)(=O)c2sc(S(N)(=O)=O)cc21 :
Resp: no (0)

Req: Call for entry O=C(O)c1cccnc1 :
Resp: no (0)
